- Test system: pigweed, palmer
- method-description: Test C postemergence
- Assay type: in vivo, Amaranthus palmeri
- setup-conditions: Postemergence, 500 g ai/ha, 10 days, visual 0 to 100 scale (0 no effect, 100 complete control)
Answer each item with its documented Plant response rating, Pigweed, Palmer.
// print number alone

Item Cc1cc(-n2cnc(C(C)C)n2)cc(C(=O)N2C[C@H](C)Oc3c(Cl)cccc32)c1F [Compound 223] with pigweed, palmer - Plant response rating, Pigweed, Palmer?
90

Please state recorded Plant response rating, Pigweed, Palmer (tested on pigweed, palmer) of C[C@H]1CN(C(=O)c2cc(-n3cnc(C(C)(C)C)n3)cc3c2OCCO3)c2cccc(Cl)c2O1 [Compound 154]
100

For pigweed, palmer, provide Plant response rating, Pigweed, Palmer of COc1cc(C(=O)N2C[C@H](C)Oc3c(Cl)cccc32)cc(-n2cnc(C3CC3)n2)c1 [Compound 216] please.
90

Param readout= Plant response rating, Pigweed, Palmer; system= pigweed, palmer; entry= COc1ccc(-n2cnc(C(C)(C)O)n2)cc1C(=O)N1C[C@H](C)Oc2c(Cl)cccc21 [Compound 254] ; returns value.
100

* * *

- Tested on: pigweed, palmer
- method-description: Test C preemergence
- Format: in vivo, Amaranthus palmeri
- setup-conditions: Test C, preemergence, 125 g ai/ha; 0 to 100 scale (0 no effect, 100 complete control)
What Pigweed, Palmer plant response rating was measured for each of the following?
Write the number on its own, no unit after it.

Please give the measured Pigweed, Palmer plant response rating for this compound: "COc1c(C)cc(-n2cnc(C(C)C)n2)cc1C(=O)N1C[C@H](C)Oc2c(Cl)cccc21"
40

Name the recorded Pigweed, Palmer plant response rating for "Cc1ccc(-n2cnc(C(C)C)n2)cc1C(=O)N1C[C@H](C)Oc2c1cccc2C(F)(F)F" .
100

I would be grateful if you could share the reported Pigweed, Palmer plant response rating for "C[C@H]1CN(C(=O)c2cc(-n3cnc(C4CC4)n3)cc3c2OCCO3)c2cccc(Cl)c2O1" .
100

Look at this compound and give its reported Pigweed, Palmer plant response rating. "Cc1cccc2c1O[C@@H](C)CN2C(=O)c1cccc(-n2cnc(C#C[Si](C)(C)C)n2)c1"
0

Please look up its Pigweed, Palmer plant response rating: "CC(C)c1ncn(-c2cc(C(=O)N3C[C@H](C)Oc4c(Cl)cccc43)cnn2)n1"
80

# Pigweed, Palmer plant response rating lookup, item "CC(C)c1ncn(-c2ccc(S(=O)(=O)C(F)(F)F)c(C(=O)N3C[C@H](C)Oc4c(Cl)cccc43)c2)n1"
0

I would be grateful if you could share the reported Pigweed, Palmer plant response rating for "CCc1ccc(-n2cnc(C(C)(C)O)n2)cc1C(=O)N1C[C@H](C)Oc2c(Cl)cccc21" .
100

* * *

- Tested on: oat, wild
- method-description: Test C preemergence
- Assay type: in vivo, Avena fatua
- setup-conditions: 500 g ai/ha, preemergence; 0 to 100 scale (0 no effect, 100 complete control)
Would you mind telling me the reported Oat, Wild plant response rating of each entry?

API: value(readout=Oat, Wild plant response rating, system=oat, wild) for record Cc1cccc2c1OC(C(F)(F)F)CN2C(=O)c1cccc(-n2cnc(C(C)C)n2)c1 (racemic)
90

Recorded Oat, Wild plant response rating for Cc1ncnn1-c1cc(C(=O)N2CC(C(F)(F)F)Oc3c(Cl)cccc32)ccn1 (racemic) with oat, wild, please?
0

API: value(readout=Oat, Wild plant response rating, system=oat, wild) for record "CC(C)c1ncn(-c2cc(O)c(O)c(C(=O)N3C[C@H](C)Oc4c(Cl)cccc43)c2)n1"
0

Please tell me: Oat, Wild plant response rating of "COC[C@H]1CN(C(=O)c2cc(-n3cnc(C(C)C)n3)ccc2OC)c2cccc(Cl)c2O1" , system oat, wild?
80

Could you share what Oat, Wild plant response rating was measured for "Cc1ccc(-n2cnc(CC3CC3)n2)cc1C(=O)N1C[C@H](C)Oc2c(Cl)cccc21" , tested on oat, wild?
80

Param readout= Oat, Wild plant response rating; system= oat, wild; entry= "COC(C)(C)c1ncn(-c2ccc(C)c(C(=O)N3C[C@H](C)Oc4c(Cl)cccc43)c2)n1" ; returns value.
90

Enter reported Oat, Wild plant response rating observed with oat, wild for "CSc1ccc(-n2cnc(C(C)C)n2)cc1C(=O)N1C[C@H](C)Oc2c(Cl)cccc21"
80

* * *

- Tested on: corn
- method-description: Test C preemergence
- Assay type: in vivo, Zea mays
- setup-conditions: Test C, preemergence, 125 g ai/ha; 0 to 100 scale (0 no effect, 100 complete control)
Consider the following compounds; for each one, report its Corn plant response rating.
Just the number.

For "Cc1ccc(-n2cnc(CS(C)(=O)=O)n2)cc1C(=O)N1C[C@H](C)Oc2c(Cl)cccc21" , what is its reported Corn plant response rating?
20

Quick one: Corn plant response rating of "COC(=O)N(C)c1ncn(-c2cccc(C(=O)N3C[C@H](C)Oc4c(C)cccc43)c2)n1" ?
0

Look up Corn plant response rating for this compound: "Cc1cccc2c1O[C@H](C)CN2C(=O)c1cccc(-c2ncn(C(C)C)n2)c1"
0

Give its Corn plant response rating value. Item: Cc1cccc2c1OC(C(F)(F)F)CN2C(=O)c1cccc(-n2cnc(C(C)C)n2)c1 (racemic) [Compound 301]
0

* * *

- Test system: ducksalad
- method-description: Test D flooded paddy test
- Format: in vivo, Heteranthera limosa
- setup-conditions: 250 g ai/ha, applied to paddy water, visual rating after 13 to 14 days, scale 0 to 100 (0 no effect, 100 complete control)
metric: Plant response rating, Ducksalad (Flood)

Value wanted: Plant response rating, Ducksalad (Flood) (ducksalad) of entry CCc1ncn(-c2ccc(C)c(C(=O)N3CC(C(F)(F)F)Oc4c(Cl)cccc43)c2)n1 (racemic) [Compound 290]
50

What Plant response rating, Ducksalad (Flood) appears in the records for this compound with ducksalad? CC1Oc2ccccc2N(C(=O)c2cccc(-n3cncn3)c2)C1C (stereo not shown) [Compound 285]
0

Value wanted: Plant response rating, Ducksalad (Flood) (ducksalad) of entry CSc1ccc(-n2cnc(C(C)C)n2)cc1C(=O)N1C[C@H](C)Oc2c(Cl)cccc21 [Compound 391]
35

Hi! What's the reported Plant response rating, Ducksalad (Flood) for CC(C)c1ncn(-c2cc3c(c(C(=O)N4C[C@H](C)Oc5c(Cl)cccc54)c2)OCCCO3)n1 [Compound 158] on ducksalad?
65

Give recorded Plant response rating, Ducksalad (Flood) with ducksalad for the following compound: CCc1ncn(-c2cc3c(c(C(=O)N4C[C@H](C)Oc5c(Cl)cccc54)c2)OCCO3)n1 [Compound 155]
60

Find the measured Plant response rating, Ducksalad (Flood): item Cc1ccc(-n2cnc(C3(C#N)CC3)n2)cc1C(=O)N1C[C@H](C)Oc2c(Cl)cccc21 [Compound 398] , target or system ducksalad.
15

What is its Plant response rating, Ducksalad (Flood) for ducksalad? Entry: Cc1cccc2c1O[C@@H](C)CN2C(=O)c1cccc(-n2cnc([N+](=O)[O-])n2)c1 [Compound 306]
0

# value lookup — system ducksalad, readout Plant response rating, Ducksalad (Flood), item CC(C)c1ncn(-c2cc3c(c(C(=O)N4C[C@H](C)Oc5c(Cl)cccc54)c2)OCCO3)n1 [Compound 217]
85

Form: Entry = Cc1ccc(-n2cnc(C(C)C)n2)cc1C(=O)N1CC(C(F)(F)F)Oc2c(Cl)cccc21 (single isomer, unassigned) [Compound 292] | System = ducksalad | Plant response rating, Ducksalad (Flood) = ____
0

Report Plant response rating, Ducksalad (Flood) for CCOC[C@H]1CN(C(=O)c2cc(-n3cnc(C4CCC4)n3)cc3c2OCCO3)c2cccc(Cl)c2O1 [Compound 386] tested on ducksalad.
0

Give the reported Plant response rating, Ducksalad (Flood) for COC[C@H]1CN(C(=O)c2cc(-n3cncn3)ccc2OC)c2cccc(Cl)c2O1 [Compound 234] (system: ducksalad).
100

Under ducksalad: Plant response rating, Ducksalad (Flood) value of CCc1ncn(-c2ccc(OC)c(C(=S)N3C[C@H](C)Oc4c(C)cccc43)c2)n1 [Compound 271] ?
85

Kindly state the measured Plant response rating, Ducksalad (Flood) obtained for Cc1ccc(-n2cnc(C(C)(C)C)n2)cc1C(=O)N1CC(C(F)(F)F)Oc2c(Cl)cccc21 (stereo not shown) [Compound 350] with ducksalad.
0

Field: Plant response rating, Ducksalad (Flood) (ducksalad). Entry: COc1c(F)cc(-n2cnc(C(C)C)n2)cc1C(=O)N1C[C@H](C)Oc2c(Cl)cccc21 [Compound 177]
50

Could you share what Plant response rating, Ducksalad (Flood) was measured for CCOC[C@H]1CN(C(=O)c2cc(-n3cnc(CC)n3)cc3c2OCCO3)c2cccc(Cl)c2O1 [Compound 387] , tested on ducksalad?
20

GET /values?readout=Plant response rating, Ducksalad (Flood)&system=ducksalad&item= C[C@H]1CN(C(=O)c2cc(-n3cncn3)cc(C(F)(F)F)c2)c2cccc(Cl)c2O1 [Compound 335]
35

Enter reported Plant response rating, Ducksalad (Flood) observed with ducksalad for COc1ccc(-n2cnc(C(C)C)n2)cc1C(=O)N1C[C@H](C)Oc2c(F)cccc21 [Compound 269]
100

Provide the documented Plant response rating, Ducksalad (Flood) with ducksalad as the system for COC[C@H]1CN(C(=O)c2cc(-n3cnc(C4CCC4)n3)ccc2OC)c2cccc(Cl)c2O1 [Compound 236]
75

Request - read-out Plant response rating, Ducksalad (Flood) | tested on ducksalad | compound CCOC(=O)c1ncn(-c2ccc(C)c(C(=O)N3C[C@H](C)Oc4c(Cl)cccc43)c2)n1 [Compound 342]
10

Lab note: need Plant response rating, Ducksalad (Flood) for Cc1cccc2c1O[C@H](C)CN2C(=O)c1cccc(-c2ncn(C(C)C)n2)c1 [Compound 221] on ducksalad, anyone have it?
0

Provide value of Plant response rating, Ducksalad (Flood) for this record tested with ducksalad: CCOC[C@H]1CN(C(=O)c2cc(-n3cnc(C4CCC4)n3)cc3c2OCO3)c2cccc(Cl)c2O1 [Compound 399]
0

Fill in the recorded Plant response rating, Ducksalad (Flood) for this compound, with ducksalad as test system: CC(C)c1cc(C(=O)N2C[C@H](C)Oc3c(Cl)cccc32)cc(-n2cncn2)c1 [Compound 316]
0

Query Plant response rating, Ducksalad (Flood) on ducksalad for CCOC[C@H]1CN(C(=O)c2cc(-n3cnc(C(C)(C)C)n3)cc3c2OCCO3)c2cccc(Cl)c2O1 [Compound 388]
0

Requested read-out Plant response rating, Ducksalad (Flood), target or system ducksalad, entry COc1ccc(-n2cnc(C3CC3)n2)cc1C(=O)N1C[C@H](C)Oc2c(Cl)cccc21 [Compound 324]
80

API: value(readout=Plant response rating, Ducksalad (Flood), system=ducksalad) for record CSCc1ncn(-c2ccc(C)c(C(=O)N3C[C@H](C)Oc4c(Cl)cccc43)c2)n1 [Compound 178]
95

Entry Cc1cccc2c1OC(C(F)(F)F)CN2C(=O)c1cccc(-n2cnc(C(C)(C)C)n2)c1 (stereo not shown) [Compound 347] , system ducksalad: what Plant response rating, Ducksalad (Flood) was measured?
0

Query Plant response rating, Ducksalad (Flood) on ducksalad for Cc1ncc(-c2cccc(C(=O)N3C[C@H](C)Oc4c(Cl)cccc43)c2)o1 [Compound 352]
0

Hello, I am looking for reported Plant response rating, Ducksalad (Flood) with ducksalad for Cc1ccc(-n2cnc(C#N)n2)cc1C(=O)N1C[C@H](C)Oc2c(Cl)cccc21 [Compound 363] . Could you help?
0

Identify the measured Plant response rating, Ducksalad (Flood) of Cc1ccc(-n2cnc(C[S+](C)[O-])n2)cc1C(=O)N1C[C@H](C)Oc2c(Cl)cccc21 (stereo partly shown) [Compound 224] for ducksalad.
95

API: value(readout= Plant response rating, Ducksalad (Flood), system= ducksalad, query= Cc1cccc2c1O[C@@H](C)CN2C(=O)c1cccc(-n2cnc(C#C[Si](C)(C)C)n2)c1 [Compound 284] )
65

Record CCn1cnc(-c2cccc(C(=O)N3C[C@H](C)Oc4c(Cl)cccc43)c2)n1 [Compound 173] : what is its Plant response rating, Ducksalad (Flood) with ducksalad?
0
